// values below are reported Percent Effect
System: Leishmania donovani
assay.comment: Leishmania intramacrophage assay
Type: functional, organism-based
Parameters: scale not given: in the data most compounds retested in dose-response had high values
measurement.context: 30.3 µM; […]
Out of some 69,000 compounds screened, about 1,000 (1.4%) showed an effect of 50% or more. The sample as a whole holds a higher share of strong results than the screen did.
Respond numerically; units are % and should not be typed.

Solved cases (4 shown):
[[record]]
compound = "O=C(O)C(F)(F)F.O=C(O)C(F)(F)F.c1cnc(N2C[C@H]3CCN(CCN4CCCC4)C[C@H]3C2)cn1"
observed_result = 50.81

[[record]]
compound = "O=C(O)C(F)(F)F.c1cnc(N2C[C@H]3CCN(CC4CC4)C[C@H]3C2)cn1"
observed_result = 30.4

[[record]]
compound = "O=C(NCCCN1CCCCC1)c1n[nH]c(=O)c2ccccc12"
observed_result = 20.29

[[record]]
compound = "CC(C)n1c(=O)c2ccccc2n(CCCN(C)C)c1=O.Cl"
observed_result = -9.627


# context switch: different compound, same Percent Effect
Form field Percent Effect, entry COCCN1CCC2(CC1)CC(N1CCOCC1)c1cc(C)ccc12.O=C(O)C(F)(F)F.O=C(O)C(F)(F)F (stereo not given) : 13.44

----------
Form field: Percent Effect (one value per entry).
Tested on: Leishmania donovani
assay.comment: Leishmania intramacrophage assay
Type: functional, organism-based
Parameters: scale not given: in the data most compounds retested in dose-response had high values
measurement.context: 30.3 µM; […]
About 1,000 (1.4%) of roughly 69,000 compounds showed an effect of 50% or more. The full list was thinned out, with strong results kept by preference.
Please respond with the number in % and leave the unit unwritten.

[[record]]
compound = "CCN(CC)CCNS(=O)(=O)c1cccc(CSC)c1"
target_under_test = "Leishmania donovani"
observed_result = -28.14

[[record]]
compound = "Cc1cnc(N2CCC3(CCN(Cc4csc(C)n4)C3=O)C2)nc1.O=C(O)C(F)(F)F (stereo unspecified)"
target_under_test = "Leishmania donovani"
observed_result = 19.08

[[record]]
compound = "O=C(Nc1cccc(N2CCN(CC3CC3)CC2)c1)C1CCCO1 (stereo unspecified)"
target_under_test = "Leishmania donovani"
observed_result = 25.21

[[record]]
compound = "CSCc1cccc(S(=O)(=O)NCCO)c1"
target_under_test = "Leishmania donovani"
observed_result = 7.47

[[record]]
compound = "CSCCc1n[nH]c2c1CN(S(=O)(=O)c1c(C)nn(C)c1C)CC2"
target_under_test = "Leishmania donovani"
observed_result = -0.401


Entry COc1c(C2CCCN2C(=O)c2ccoc2C)c(C)nn1C (stereo unspecified) ; Percent Effect = 0.8433

// Percent Effect value for COC1COC2(CCN(Cc3ccc4c(c3)OCO4)CC2)C1.O=C(O)C(F)(F)F (stereo unspecified) : 2.758

# Percent Effect (compound: "CCOCCOc1ccc(S(=O)(=O)N2CCc3c(nc[nH]c3=O)C2)cc1" ) is 59.04

Per the records, this compound ( "N[C@H]1CN(CCOc2ccc(F)cc2)C[C@@H]1C1CC1" ) has Percent Effect equal to 44.73

Entry "COc1cccc(CCC(=O)N2CCC[C@@H](N)[C@@H]2c2ccccc2F)c1.Cl" — recorded Percent Effect = 36.93

Percent Effect reading for COc1cc(N2CCC3(CCN(Cc4csc(C)n4)C3=O)C2)ncn1.O=C(O)C(F)(F)F (stereo unspecified) : 55.45

The value of Percent Effect measured for the compound "Cc1cc(CN(CC(N)=O)CC(C)C)no1" turned out to be 34.93

----------
Tested on: Leishmania donovani
assay.comment: Leishmania intramacrophage assay
Assay type: functional, organism-based
Parameters: scale not given: in the data most compounds retested in dose-response had high values
measurement.context: 30.3 µM; […]
Hit rate of the full screen: of about 69,000 compounds, about 1,000 (1.4%) showed an effect of 50% or more. Many of the other results were omitted from the sample, so strong results are more common in it than they were.
Use 30% as the dividing line for Percent Effect, with the line itself on the fulfilled side and lower values as not fulfilled.

Past entries and their recorded results:
[[record]]
compound = "CC(=O)N1CCC2(CC1)CC(NS(C)(=O)=O)c1ccccc1O2 (centres undefined)"
category_label = "not fulfilled"

[[record]]
compound = "Cc1nn2c(-c3snnc3C)nnc2s1"
category_label = "fulfilled"

[[record]]
compound = "CC(NC(=O)C1CCN(C(=O)C2CC2)CC1)c1nncn1C(C)C (centres undefined)"
category_label = "not fulfilled"

[[record]]
compound = "COCCn1cnc2ccc(NC(=O)c3ccc(OC)cc3)cc2c1=O"
category_label = "not fulfilled"


// inclusive: Percent Effect at least 30%? input: CC(NC(=O)C1CCN(C(C)C)CC1)c1nncn1C1CCCC1 (centres undefined)
fulfilled

Hi team, for "Cc1ccc(CN(C)C(=O)c2cnsn2)cc1" , is the recorded Percent Effect at or above 30%?
not fulfilled

Could you verify whether the entry "COC(=O)NC1(C(=O)Nc2ccc(-c3ncc[nH]3)cc2)CCCC1" shows Percent Effect of no less than 30%?
not fulfilled

Does "Cc1cnn(-c2ccc(S(=O)(=O)N(C)CC(C)(CO)CO)cc2F)c1" have a reported Percent Effect of at least 30%?
not fulfilled

Kindly determine if Percent Effect recorded for Cn1cc(-c2nnn3c2COC(CNC(=O)c2cccs2)C3)cn1 (centres undefined) is above or exactly 30%.
fulfilled

----------
Test system: Leishmania donovani
assay.comment: Leishmania intramacrophage assay
Type: functional, organism-based
Set-up: scale not given: in the data most compounds retested in dose-response had high values
measurement.context: 30.3 µM; […]
The campaign covered roughly 69,000 compounds. About 1,000 (1.4%) showed an effect of 50% or more. The sample as a whole holds a higher share of strong results than the screen did.
assay.endpoint: Percent Effect (%)
Report as a plain number; the unit % is understood.

Worked set:
[[record]]
compound = "O=C(NC1CC1)NC(c1ccc(F)cc1)C1CC1 (stereo unspecified)"
observed_result = 4.479

[[record]]
compound = "COc1cccc(Nc2nc(-c3ccncc3)nc3c2CNCC3)c1.Cl"
observed_result = 63.42


# Percent Effect (compound: "CCCn1nc2c(cc1=O)CN(c1ncnc3ccsc13)CC2" ) is 56.14

"CCc1cnc2c(c1Nc1cccc(OC)c1)c(=O)n(C)c(=O)n2C" yielded Percent Effect of 19.41

----------
# Percent Effect listing for each entry below
Tested on: Leishmania donovani
assay.comment: Leishmania intramacrophage assay
Format: functional, organism-based
Set-up: scale not given: in the data most compounds retested in dose-response had high values
measurement.context: 30.3 µM; […]
Among all 69,000 compounds or so, about 1,000 (1.4%) showed an effect of 50% or more. Only a selection was taken, and strong results are over-represented in it overall.
Value expressed in %; do not type the unit.

Answered cases to consult:
[[record]]
compound = "COc1ccc2c(ccn2CCC(=O)Nc2n[nH]c(CC(C)C)n2)c1"
target_under_test = "Leishmania donovani"
assay_endpoint = "Percent Effect"
unit_of_measure = "%"
observed_result = -2.003

[[record]]
compound = "Cc1ccccc1SC1CCN(C(=O)C2CNC(=O)N2)CC1 (stereo unspecified)"
target_under_test = "Leishmania donovani"
assay_endpoint = "Percent Effect"
unit_of_measure = "%"
observed_result = -12.93

[[record]]
compound = "CC1(C(=O)NC2CCCC2)CCCN(c2ncccn2)C1 (stereo unspecified)"
target_under_test = "Leishmania donovani"
assay_endpoint = "Percent Effect"
unit_of_measure = "%"
observed_result = 2.815

[[record]]
compound = "COc1cc(CSc2nnc(N)n2C2CC2)ccc1SC"
target_under_test = "Leishmania donovani"
assay_endpoint = "Percent Effect"
unit_of_measure = "%"
observed_result = 3.668


Quick note, Percent Effect for "Cc1ccccc1SC1CCN(C(=O)[C@H]2[C@@H]3CNC[C@@H]32)CC1" landed at 68.53

response.value for "CCOc1ccc(OCc2nc3c(c(=O)[nH]2)CCNC3)cc1" (field: Percent Effect) = 15.57

# Percent Effect (compound: "Cc1ccccc1SC1CCN(C(=O)[C@@H]2C[C@@H](N)CN2)CC1" ) is 56.56

Form: compound = "CCN(CC)c1ccc2ccc(C(=O)N3CCCCO3)cn12.O=C(O)C(F)(F)F" ; Percent Effect = 27.79

CC1(C(=O)NCc2cccnc2Oc2ccc(F)c(F)c2)CCCNC1 (stereo unspecified) yielded Percent Effect of -16.47

For this compound ( "COc1ccccc1CN1CC[C@]2(C[C@@H](OCC(=O)N(C)C)CO2)C1.O=C(O)C(F)(F)F" ), measured Percent Effect is 48.44

Record "CN(C)C(=O)CO[C@H]1CO[C@@]2(CCN(Cc3ccsc3)C2)C1.O=C(O)C(F)(F)F" . Reported Percent Effect: 39.07

----------
System: Leishmania donovani
assay.comment: Leishmania intramacrophage assay
Format: functional, organism-based
Set-up: scale not given: in the data most compounds retested in dose-response had high values
measurement.context: 30.3 µM; […]
Among all 69,000 compounds or so, about 1,000 (1.4%) showed an effect of 50% or more. The sample holds strong results, similar compounds and a random draw of the others, so the mix is not that of the screen.
assay.endpoint: Percent Effect (%)
Unit % implied. Number only.

Some molecules with recorded Percent Effect:
[[record]]
molecule = "O=C(C(CNCc1cccc(O)c1)c1ccccc1)N1CCOCC1 (centres undefined)"
target_under_test = "Leishmania donovani"
unit_of_measure = "%"
observed_result = 17.14

[[record]]
molecule = "CCc1nc(NC(=O)NCCc2scnc2C)nn1C"
target_under_test = "Leishmania donovani"
unit_of_measure = "%"
observed_result = -19.54

[[record]]
molecule = "Cc1cccc(CNC2CCN(CCc3ccncc3)CC2)c1C"
target_under_test = "Leishmania donovani"
unit_of_measure = "%"
observed_result = 74.34


# Percent Effect of "CCN(CCSc1ccccc1)C(=O)c1cn([C@H]2CC[C@@H](N)CC2)nn1" = 13.68
